Test system: 885724-159-R-J1-PDC KRAS PDC multicell spheroid viability
Assay: Anticancer human tumor 885724-159-R-J1-PDC patient-derived pancreatic adenocarcinoma cell line growth inhibition [KRAS2]
Conditions: second compound 3.16 µM; first compound 1 µM; stronger effect = lower value
viability, T/C values by entry

Examples from the recorded data:
| Molecule | Target Of Assay | Assay Readout | Result |
| --- | --- | --- | --- |
| CC1COCCN1c1cc(-c2ccnn2C)c2ccnc(-c3ccn[nH]3)c2n1 (centres undefined) + CC1OCC2(CCN(c3cnc(Sc4ccnc(N)c4Cl)c(N)n3)CC2)C1N | 885724-159-R-J1-PDC KRAS PDC multicell spheroid viability | viability, T/C | 45.9% |
| CC(C)NCC(C(=O)N1CCN(c2ncnc3c2C(C)CC3O)CC1)c1ccc(Cl)cc1 (centres undefined) + COc1cc2nc(C)nc(NC(C)c3cc(N)cc(C(F)(F)F)c3)c2cc1OC1CCOC1 | 885724-159-R-J1-PDC KRAS PDC multicell spheroid viability | viability, T/C | 71.3% |
| CC1COCCN1c1cc(-c2ccnn2C)c2ccnc(-c3ccn[nH]3)c2n1 (centres undefined) + C=CC(=O)N1CCN(c2nc(OCC3CCCN3C)nc3c2CCN(c2cccc4cccc(C)c24)C3)CC1CC#N | 885724-159-R-J1-PDC KRAS PDC multicell spheroid viability | viability, T/C | 25.4% |

Fill in: viability, T/C of O=C(c1cc(Cc2n[nH]c(=O)c3ccccc23)ccc1F)N1CCN(C(=O)C2CC2)CC1 + CC1OCC2(CCN(c3cnc(Sc4ccnc(N)c4Cl)c(N)n3)CC2)C1N is ___
86%

----------
System: 885724-159-R-J1-PDC KRAS PDC multicell spheroid viability
Test: Anticancer human tumor 885724-159-R-J1-PDC cell line growth inhibition [KRAS2];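 note: spheroids exposed to agents for 7 days before readout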
Settings: second compound 3.16 µM; first compound 3.16 µM; stronger effect = lower value
From the text: Multicellular complex tumor spheroid response to RAS pathway inhibitors in combination with a targeted agents in patient-derived cell lines with oncogenic KRAS variants from multiple cancer types A high-throughput screen of multi-cell type tumor spheroids was designed to identify active combinations of targeted small molecules and KRAS pathway inhibitors. […] Compounds. […] If the clinical Cmax for an agent had not been determined, the highest concentration tested was 10 microM. […]
Lab note - cut at 60% for viability, T/C: fulfilled if strictly below, not fulfilled if not.

The following compounds have reported results that may help.
| Compound | Class |
| --- | --- |
| CC(C)NCC(C(=O)N1CCN(c2ncnc3c2C(C)CC3O)CC1)c1ccc(Cl)cc1 (configuration not stated) + CC1OCC2(CCN(c3cnc(Sc4ccnc(N)c4Cl)c(N)n3)CC2)C1N | fulfilled |
| COc1cc(Nc2ncc3c(n2)-c2ccc(Cl)cc2C(c2c(F)cccc2OC)=NC3)ccc1C(=O)O + C=CC(=O)N1CCN(c2nc(=O)n(-c3c(C)ccnc3C(C)C)c3nc(-c4c(O)cccc4F)c(F)cc23)C(C)C1 | not fulfilled |
| Cn1nccc1Nc1nccc(-c2cc3c(s2)C(C)(C)N(CCN2CCOCC2)C3=O)n1 + CC1OCC2(CCN(c3cnc(Sc4ccnc(N)c4Cl)c(N)n3)CC2)C1N | fulfilled |
| CCNC(=O)CC1N=C(c2ccc(Cl)cc2)c2cc(OC)ccc2-n2c(C)nnc21 (configuration not stated) + COc1cc2nc(C)nc(NC(C)c3cc(N)cc(C(F)(F)F)c3)c2cc1OC1CCOC1 | fulfilled |
| COc1cc(Nc2ncc3c(n2)-c2ccc(Cl)cc2C(c2c(F)cccc2OC)=NC3)ccc1C(=O)O + COc1cc2nc(C)nc(NC(C)c3cc(N)cc(C(F)(F)F)c3)c2cc1OC1CCOC1 | not fulfilled |

Okay, next one:
I'd appreciate it if you could check whether CCNC(=O)CC1N=C(c2ccc(Cl)cc2)c2cc(OC)ccc2-n2c(C)nnc21 (configuration not stated) + C=CC(=O)N1CCN(c2nc(OCC3CCCN3C)nc3c2CCN(c2cccc4cccc(C)c24)C3)CC1CC#N has viability, T/C smaller than 60%.
fulfilled

----------
System: 885724-159-R-J1-PDC KRAS PDC multicell spheroid viability
Assay: Anticancer human tumor 885724-159-R-J1-PDC cell line growth inhibition [KRAS2]; active means viability on the fitted dose curve at most 10% of control; inactive means the rest;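 note: spheroids exposed to agents for 7 days before readout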
Conditions: second compound 3.16 µM; first compound 1 µM
Would you mind answering with one of these outcomes? 1 (yes) for active, 0 (no) for inactive

The following compounds have reported results that may help.
| Compound | Class |
| --- | --- |
| CCN1CCN(Cc2ccc(Nc3ncc(F)c(-c4cc(F)c5nc(C)n(C(C)C)c5c4)n3)nc2)CC1 + CNCc1ccccc1-c1csc(C(C)Nc2nc(C)nc3cc(OC)c(OC)cc23)c1 | 1 (yes) |
| CC1COCCN1c1cc(-c2ccnn2C)c2ccnc(-c3ccn[nH]3)c2n1 (stereo not drawn) + COc1cc2nc(C)nc(NC(C)c3cc(N)cc(C(F)(F)F)c3)c2cc1OC1CCOC1 | 0 (no) |
| Cn1nccc1Nc1nccc(-c2cc3c(s2)C(C)(C)N(CCN2CCOCC2)C3=O)n1 + C=CC(=O)N1CCN(c2nc(OCC3CCCN3C)nc3c2CCN(c2cccc4cccc(C)c24)C3)CC1CC#N | 0 (no) |
| CCNC(=O)CC1N=C(c2ccc(Cl)cc2)c2cc(OC)ccc2-n2c(C)nnc21 (stereo not drawn) + COc1cc2nc(C)nc(NC(C)c3cc(N)cc(C(F)(F)F)c3)c2cc1OC1CCOC1 | 0 (no) |
| CC(=O)OC12COC1CC(O)C1(C)C(=O)C(O)C3=C(C)C(OC(=O)C(O)C(NC(=O)OC(C)(C)C)c4ccccc4)CC(O)(C(OC(=O)c4ccccc4)C21)C3(C)C (stereo not drawn) + CC1OCC2(CCN(c3cnc(Sc4ccnc(N)c4Cl)c(N)n3)CC2)C1N | 0 (no) |

Please state the recorded outcome for this compound: COc1cc2nccc(Oc3ccc(NC(=O)C4(C(=O)Nc5ccc(F)cc5)CC4)cc3)c2cc1OC + C=CC(=O)N1CCN(c2nc(=O)n(-c3c(C)ccnc3C(C)C)c3nc(-c4c(O)cccc4F)c(F)cc23)C(C)C1
0 (no)

Please state the recorded outcome for this compound: COC(=O)c1ccc2c(C(=Nc3ccc(N(C)C(=O)CN4CCN(C)CC4)cc3)c3ccccc3)c(O)[nH]c2c1 + CNCc1ccccc1-c1csc(C(C)Nc2nc(C)nc3cc(OC)c(OC)cc23)c1
1 (yes)

----------
Test system: 885724-159-R-J1-PDC KRAS PDC multicell spheroid viability
Assay: Anticancer human tumor 885724-159-R-J1-PDC cell line growth inhibition [KRAS2];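 note: spheroids exposed to agents for 7 days before readout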
Settings: curve of first compound; second compound 1 µM
Assay Readout: IC50

| Compound | Target Of Assay | IC50 |
| --- | --- | --- |
| CCN1CCN(Cc2ccc(Nc3ncc(F)c(-c4cc(F)c5nc(C)n(C(C)C)c5c4)n3)nc2)CC1 + CNCc1ccccc1-c1csc(C(C)Nc2nc(C)nc3cc(OC)c(OC)cc23)c1 | 885724-159-R-J1-PDC KRAS PDC multicell spheroid viability | > 1 µM |
| COc1cc(Nc2ncc3c(n2)-c2ccc(Cl)cc2C(c2c(F)cccc2OC)=NC3)ccc1C(=O)O + COc1cc2nc(C)nc(NC(C)c3cc(N)cc(C(F)(F)F)c3)c2cc1OC1CCOC1 | 885724-159-R-J1-PDC KRAS PDC multicell spheroid viability | > 10 µM |
| CCNC(=O)CC1N=C(c2ccc(Cl)cc2)c2cc(OC)ccc2-n2c(C)nnc21 (stereo not drawn) + C=CC(=O)N1CCN(c2nc(=O)n(-c3c(C)ccnc3C(C)C)c3nc(-c4c(O)cccc4F)c(F)cc23)C(C)C1 | 885724-159-R-J1-PDC KRAS PDC multicell spheroid viability | > 10 µM |
| CC(=O)OC12COC1CC(O)C1(C)C(=O)C(O)C3=C(C)C(OC(=O)C(O)C(NC(=O)OC(C)(C)C)c4ccccc4)CC(O)(C(OC(=O)c4ccccc4)C21)C3(C)C (stereo not drawn) + CC1OCC2(CCN(c3cnc(Sc4ccnc(N)c4Cl)c(N)n3)CC2)C1N | 885724-159-R-J1-PDC KRAS PDC multicell spheroid viability | > 3.16 µM |
| O=C(c1cc(Cc2n[nH]c(=O)c3ccccc23)ccc1F)N1CCN(C(=O)C2CC2)CC1 + CNCc1ccccc1-c1csc(C(C)Nc2nc(C)nc3cc(OC)c(OC)cc23)c1 | 885724-159-R-J1-PDC KRAS PDC multicell spheroid viability | > 10 µM |

Fill in: IC50 of O=C(c1cc(Cc2n[nH]c(=O)c3ccccc23)ccc1F)N1CCN(C(=O)C2CC2)CC1 + C=CC(=O)N1CCN(c2nc(=O)n(-c3c(C)ccnc3C(C)C)c3nc(-c4c(O)cccc4F)c(F)cc23)C(C)C1 is ___
> 10 µM

Fill in: IC50 of CC(C)NCC(C(=O)N1CCN(c2ncnc3c2C(C)CC3O)CC1)c1ccc(Cl)cc1 (stereo not drawn) + COc1cc2nc(C)nc(NC(C)c3cc(N)cc(C(F)(F)F)c3)c2cc1OC1CCOC1 is ___
> 10 µM

Fill in: IC50 of Cn1ncnc1[C@H]1c2n[nH]c(=O)c3cc(F)cc(c23)N[C@@H]1c1ccc(F)cc1 + COc1cc2nc(C)nc(NC(C)c3cc(N)cc(C(F)(F)F)c3)c2cc1OC1CCOC1 is ___
> 0.1 µM
